- Tested on: Rattus norvegicus
- assay_protocol: Analgesic activity in carrageenan-treated po dosed rat assessed as concentration required to double pain index of control
- Assay type: functional
The label is 1 (yes) for AID2.0 (dose doubling pain index) below 2 mg/kg and 0 (no) for AID2.0 (dose doubling pain index) equal to or exceeding 2 mg/kg.

See these solved cases before continuing.
INSERT INTO measurements (compound, target, class) VALUES
  ('CC(C(=O)O)c1ccc2c(c1)OCc1ccccc1C2=O (racemic)', 'Rattus norvegicus', '1 (yes)'),
  ('CCCCC1C(=O)N(c2ccccc2)N(c2ccccc2)C1=O', 'Rattus norvegicus', '0 (no)'),
  ('O=C(O)Cc1ccc2c(c1)OCc1ccccc1C2=O [OXEPINAC]', 'Rattus norvegicus', '1 (yes)');

stdin: Quick check: AID2.0 (dose doubling pain index) of O=C(O)Cc1ccc2c(c1)C(=O)c1ccccc1CO2 under 2 mg/kg?
stdout: 0 (no)

stdin: Now the same for CC(C(=O)O)c1ccc2c(c1)OCc1cc(Cl)ccc1C2=O (stereo not drawn)
stdout: 1 (yes)

stdin: Now the same for COc1ccc2c(c1)c(CC(=O)O)c(C)n2C(=O)c1ccc(Cl)cc1
stdout: 1 (yes)

stdin: Now the same for CC(C(=O)O)c1ccc2c(c1)C(=O)c1ccccc1CO2 (racemic)
stdout: 1 (yes)

stdin: Now the same for CC(C(=O)O)c1cccc(C(=O)c2ccccc2)c1 (stereo not drawn)
stdout: 1 (yes)

---

- assay_protocol: Toxicity in po dosed rat assessed as induction of gastric lesion
- Type: organism-based, Stomach
- details: in vivo, read-out: UD50 (the source's name)
assay_metric: TD50 (mg/kg)
Give bare numbers, in mg/kg.

# annotated cases, reported TD50 shown
INSERT INTO measurements (molecule, value_observed) VALUES
  ('O=C(O)Cc1ccc2c(c1)C(=O)c1ccccc1CO2 [ISOXEPAC]', 63),
  ('CC(C(=O)O)c1ccc2c(c1)OCc1ccccc1C2=O (racemic)', 11.4);

Below: the item to evaluate.
stdin: I'd like to know its TD50. The molecule in question is CC(C(=O)O)c1ccc2c(c1)C(=O)c1ccccc1CO2 (racemic)
stdout: 14.1

---

Kindly state ED50 for each of the entries shown.
- Tested on: Mus musculus
- assay_protocol: Analgesic activity in po dosed mouse assessed as inhibition of acetic acid-induced writhing
- Assay type: functional
Numbers only, in mg/kg.

INSERT INTO assay_data (molecule, value_observed) VALUES
  ('O=C(O)Cc1ccc2c(c1)OCc1ccccc1C2=O [OXEPINAC]', 58);

Below: the item to evaluate.
stdin: I'd like to know its ED50. The molecule in question is CC(C(=O)O)c1ccc2c(c1)C(=O)c1ccccc1CO2 (racemic)
stdout: 14

---

- Tested on: Rattus norvegicus
- assay_protocol: Antiinflammatory activity in rat with prolonged phase of inflammation assessed as inhibition of adjuvant-carrageenan-induced paw edema at 2 mg/kg, po relative to control
- Format: functional
assay_metric: inhibition in vivo at 2 mg/kg

INSERT INTO results (molecule, assay_metric, value_observed) VALUES
  ('CC(C(=O)O)c1ccc2c(c1)C(=O)c1ccccc1CO2 (racemic)', 'inhibition in vivo at 2 mg/kg', '82%'),
  ('O=C(O)Cc1ccc2c(c1)OCc1ccccc1C2=O [OXEPINAC]', 'inhibition in vivo at 2 mg/kg', '89%'),
  ('COc1ccc2c(c1)c(CC(=O)O)c(C)n2C(=O)c1ccc(Cl)cc1 [INDOMETHACIN]', 'inhibition in vivo at 2 mg/kg', '85%');

Below: the item to evaluate.
stdin: Request - read-out inhibition in vivo at 2 mg/kg | tested on Rattus norvegicus | molecule O=C(O)Cc1ccc2c(c1)C(=O)c1ccccc1CO2 [ISOXEPAC]
stdout: 55%
